- system-name: Histone deacetylase (Homo sapiens) (UniProt Q13547+O15379+Q9UBN7+Q92769+Q9UQL6+Q8WUI4+Q9BY41+Q96DB2+P56524+Q9UKV0+Q969S8)
- condition-summary: HeLa, at 1 µM
- Description: Inhibition of HDAC in human HeLa cell nuclear extracts using Fluor de Lys as substrate at 1 uM by fluorescence assay
recorded-metric: inhibition (%)

Solved cases (4 shown):
query-smiles: CCCCNC(=O)Nc1cc(/C=C/C(=O)NO)ccc1OCCN(CC)CC
result-units: %
inhibition: 80.7
--
query-smiles: CCCCCNC(=S)Nc1cc(/C=C/C(=O)NO)ccc1SCCN(CC)CC
result-units: %
inhibition: 73.8
--
query-smiles: CCCCCCCNC(=S)Nc1cc(/C=C/C(=O)NO)ccc1OCCN(CC)CC
result-units: %
inhibition: 69.8
--
query-smiles: CCCCCCNC(=S)Nc1cc(/C=C/C(=O)NO)ccc1OCCN(CC)CC
result-units: %
inhibition: 87.4

(1) CCCCCNC(=S)Nc1cc(/C=C/C(=O)NO)ccc1OCCN(CC)CC
(2) CCCCCCCNC(=O)Nc1cc(/C=C/C(=O)NO)ccc1SCCN(CC)CC
Which record shows the lower inhibition: the first, 1 , or the second, 2 ? // return label of chosen record
2
(2: 48.7%, 1: 90.5%)

* * *

- Test system: MCF7
- method-notes: Antiproliferative activity against human MCF7 cells after 48 hrs by sulforhodamine B assay
- Format: functional
- condition-summary: MCF7, 48 h
recorded-metric: GI50 (nM)

Examples with their reported GI50 follow.
compound: CCCCNC(=S)Nc1cc(/C=C/C(=O)NO)ccc1OCCN(CC)CC
recorded-metric: GI50
result-units: nM
result-number: 220

compound: CCCCCNC(=O)Nc1cc(/C=C/C(=O)NO)ccc1OCCN(CC)CC
recorded-metric: GI50
result-units: nM
result-number: 290

(1) CCCCc1nc2cc(/C=C/C(=O)NO)ccc2n1CCN(CC)CC [PRACINOSTAT]
(2) CCCCNC(=O)Nc1cc(/C=C/C(=O)NO)ccc1SCCN(CC)CC
Exercise: compare 1 and 2 ; which one has the greater GI50? Reply with the label of the item you choose.
2
(2: 430 nM, 1: 170 nM)

* * *

- system-name: Histone deacetylase (Homo sapiens) (UniProt Q13547+O15379+Q9UBN7+Q92769+Q9UQL6+Q8WUI4+Q9BY41+Q96DB2+P56524+Q9UKV0+Q969S8)
- condition-summary: HeLa, at 1 µM
recorded-metric: inhibition (%)

query-smiles: CCCCCCNC(=S)Nc1cc(/C=C/C(=O)NO)ccc1SCCN(CC)CC
recorded-metric: inhibition
result-units: %
result-number: 72.2
//
query-smiles: CCCCCCNC(=O)Nc1cc(/C=C/C(=O)NO)ccc1OCCN(CC)CC
recorded-metric: inhibition
result-units: %
result-number: 87.5
//
query-smiles: CCCNC(=S)Nc1cc(/C=C/C(=O)NO)ccc1OCCN(CC)CC
recorded-metric: inhibition
result-units: %
result-number: 82.9
//
query-smiles: CCCNC(=O)Nc1cc(/C=C/C(=O)NO)ccc1SCCN(CC)CC
recorded-metric: inhibition
result-units: %
result-number: 82.7
//
query-smiles: CCCCNC(=S)Nc1cc(/C=C/C(=O)NO)ccc1OCCN(CC)CC
recorded-metric: inhibition
result-units: %
result-number: 88
//
query-smiles: CCCCCNC(=O)Nc1cc(/C=C/C(=O)NO)ccc1OCCN(CC)CC
recorded-metric: inhibition
result-units: %
result-number: 88.9
//
query-smiles: CCCCCCNC(=O)Nc1cc(/C=C/C(=O)NO)ccc1SCCN(CC)CC
recorded-metric: inhibition
result-units: %
result-number: 79.6
//
query-smiles: CCCCNC(=O)Nc1cc(/C=C/C(=O)NO)ccc1SCCN(CC)CC
recorded-metric: inhibition
result-units: %
result-number: 84.5
//
query-smiles: CCCCCNC(=O)Nc1cc(/C=C/C(=O)NO)ccc1SCCN(CC)CC
recorded-metric: inhibition
result-units: %
result-number: 84.2
//
query-smiles: CCCCNC(=S)Nc1cc(/C=C/C(=O)NO)ccc1SCCN(CC)CC
recorded-metric: inhibition
result-units: %
result-number: 73.9
//
query-smiles: CCCNC(=O)Nc1cc(/C=C/C(=O)NO)ccc1OCCN(CC)CC
recorded-metric: inhibition
result-units: %
result-number: 80

* * *

- System: NCI-H460
- method-notes: Antiproliferative activity against human NCI-H460 cells after 48 hrs by sulforhodamine B assay
- Assay type: functional
- condition-summary: NCI-H460, 48 h
recorded-metric: GI50 (nM)

Look over these answered cases.
query-smiles: CCCCNC(=S)Nc1cc(/C=C/C(=O)NO)ccc1OCCN(CC)CC
GI50, nM: 480

query-smiles: CCCCCNC(=O)Nc1cc(/C=C/C(=O)NO)ccc1SCCN(CC)CC
GI50, nM: 940

query-smiles: CCCCCNC(=S)Nc1cc(/C=C/C(=O)NO)ccc1OCCN(CC)CC
GI50, nM: 1080

(a) CCCCCNC(=O)Nc1cc(/C=C/C(=O)NO)ccc1OCCN(CC)CC
(b) CCCCc1nc2cc(/C=C/C(=O)NO)ccc2n1CCN(CC)CC
(c) CCCCNC(=O)Nc1cc(/C=C/C(=O)NO)ccc1SCCN(CC)CC
Task for the reader: rank each entry by its GI50, from the minimum upward. Labels, requested order.
b, a, c
(b: 220 nM, a: 870 nM, c: 1550 nM)

* * *

- System: OVCAR-5
- method-notes: Antiproliferative activity against human OVCAR5 cells after 48 hrs by sulforhodamine B assay
- Type: functional
- condition-summary: OVCAR-5, 48 h
recorded-metric: GI50 (µM)

query-smiles: CCCCCNC(=S)Nc1cc(/C=C/C(=O)NO)ccc1OCCN(CC)CC
result-units: µM
GI50: 1.56
//
query-smiles: CCCCCNC(=O)Nc1cc(/C=C/C(=O)NO)ccc1OCCN(CC)CC
result-units: µM
GI50: 1.34
//
query-smiles: CCCCNC(=O)Nc1cc(/C=C/C(=O)NO)ccc1SCCN(CC)CC
result-units: µM
GI50: 1.75
//
query-smiles: CCCCNC(=S)Nc1cc(/C=C/C(=O)NO)ccc1OCCN(CC)CC
result-units: µM
GI50: 1.12

(P) CCCCCNC(=O)Nc1cc(/C=C/C(=O)NO)ccc1SCCN(CC)CC
(Q) CCCCc1nc2cc(/C=C/C(=O)NO)ccc2n1CCN(CC)CC
I would appreciate it if you could say which entry, P or Q , has the lower GI50 value. Kindly state the label of the option you pick.
Q

* * *

- system-name: Histone deacetylase
- method-notes: Inhibition of HDAC in human HeLa cell nuclear extracts using Fluor de Lys as substrate by fluorescence assay
- Assay type: protein assay
recorded-metric: IC50 (nM)

query-smiles: CCCCCCCNC(=O)Nc1cc(/C=C/C(=O)NO)ccc1OCCN(CC)CC
IC50 / nM: 410

query-smiles: CCCCCNC(=O)Nc1cc(/C=C/C(=O)NO)ccc1SCCN(CC)CC
IC50 / nM: 206

query-smiles: CCCCNC(=O)Nc1cc(/C=C/C(=O)NO)ccc1SCCN(CC)CC
IC50 / nM: 172

query-smiles: CCCNC(=O)Nc1cc(/C=C/C(=O)NO)ccc1SCCN(CC)CC
IC50 / nM: 198

query-smiles: CCCCCCNC(=O)Nc1cc(/C=C/C(=O)NO)ccc1OCCN(CC)CC
IC50 / nM: 304

query-smiles: CCCCCNC(=S)Nc1cc(/C=C/C(=O)NO)ccc1OCCN(CC)CC
IC50 / nM: 216

query-smiles: CCCNC(=O)Nc1cc(/C=C/C(=O)NO)ccc1OCCN(CC)CC
IC50 / nM: 234

query-smiles: CCCNC(=S)Nc1cc(/C=C/C(=O)NO)ccc1OCCN(CC)CC
IC50 / nM: 210

(A) CCCCCCNC(=S)Nc1cc(/C=C/C(=O)NO)ccc1OCCN(CC)CC
(B) CCCCNC(=S)Nc1cc(/C=C/C(=O)NO)ccc1OCCN(CC)CC
Please let me know which one, A or B , has a lower measured IC50 value. Refer to your chosen item by its label in the answer.
B

* * *

- System: HCT-116
- method-notes: Antiproliferative activity against human HCT116 cells after 48 hrs by sulforhodamine B assay
- Type: functional
- condition-summary: HCT-116, 48 h
recorded-metric: GI50 (nM)

Sample records with GI50:
query-smiles: CCCCCNC(=O)Nc1cc(/C=C/C(=O)NO)ccc1OCCN(CC)CC
system-name: HCT-116
GI50, nM: 470
//
query-smiles: O=C(CCCCCCC(=O)Nc1ccccc1)NO
system-name: HCT-116
GI50, nM: 940
//
query-smiles: CCCCCNC(=O)Nc1cc(/C=C/C(=O)NO)ccc1SCCN(CC)CC
system-name: HCT-116
GI50, nM: 560
//
query-smiles: CCCCCNC(=S)Nc1cc(/C=C/C(=O)NO)ccc1OCCN(CC)CC
system-name: HCT-116
GI50, nM: 720
//
query-smiles: CCCCNC(=O)Nc1cc(/C=C/C(=O)NO)ccc1SCCN(CC)CC
system-name: HCT-116
GI50, nM: 590

(P) CCCCNC(=S)Nc1cc(/C=C/C(=O)NO)ccc1OCCN(CC)CC
(Q) CCCCc1nc2cc(/C=C/C(=O)NO)ccc2n1CCN(CC)CC
Field: lower recorded GI50 (choose P or Q ) Response format: the label of the selected entry.
Q
(Q: 240 nM, P: 350 nM)

These entries and their values trace back to ChEMBL document CHEMBL2440014.
